- System: L1210 leukemia ip in BDF1 mice, survival T/C
- testMethodNotes: NCI In Vivo Anticancer Drug Screen. Data for tumor model L1210 Leukemia (intraperitoneal) in B6D2F1 (BDF1) mice
- measurementParameters: endpoint: mean survival time; dose: 400.0 mg/kg/injection; schedule: Q04DX003 (ip); vehicle: saline; higher = longer survival
Inconclusive results and toxic doses are left out.
recordedEndpoint: T/C

Consider the reported T/C for these compounds:
INSERT INTO measurements (smilesrepr, testtarget, recordedendpoint, recordedresult) VALUES
  ('O=C(/C=C/C(=O)NCc1ccccc1)NCc1ccccc1', 'L1210 leukemia ip in BDF1 mice, survival T/C', 'T/C', '100 % of control'),
  ('CCCN(CCC)C(=O)c1ccncc1', 'L1210 leukemia ip in BDF1 mice, survival T/C', 'T/C', '114 % of control'),
  ('CC(C)C(=O)NN', 'L1210 leukemia ip in BDF1 mice, survival T/C', 'T/C', '101 % of control'),
  ('Cc1cccc(CO)n1', 'L1210 leukemia ip in BDF1 mice, survival T/C', 'T/C', '103 % of control'),
  ('Cn1nc(N)c2ncc(-c3ccccc3)nc21', 'L1210 leukemia ip in BDF1 mice, survival T/C', 'T/C', '98 % of control'),
  ('O=[N+]([O-])c1ccc(-c2ncc3cnccn23)cc1', 'L1210 leukemia ip in BDF1 mice, survival T/C', 'T/C', '95 % of control');

Please turn your attention to the following entry.
For the compound `COc1ccc2c(O)c(Cl)c(=O)oc2c1` , what T/C is on record?
94 % of control

Taken from PubChem BioAssay AID248.
